The reported measurements were obtained from patent US20240084003A1.

# targetUnderTest: T1, human CD22-ECD-His protein (human, UniProt P20273 20-687)
# T1 construct: Recombinant, from HEK293E cells; also called hCD22-ECD-His; human CD22-His protein; not shown: His tag
# T1 sequence: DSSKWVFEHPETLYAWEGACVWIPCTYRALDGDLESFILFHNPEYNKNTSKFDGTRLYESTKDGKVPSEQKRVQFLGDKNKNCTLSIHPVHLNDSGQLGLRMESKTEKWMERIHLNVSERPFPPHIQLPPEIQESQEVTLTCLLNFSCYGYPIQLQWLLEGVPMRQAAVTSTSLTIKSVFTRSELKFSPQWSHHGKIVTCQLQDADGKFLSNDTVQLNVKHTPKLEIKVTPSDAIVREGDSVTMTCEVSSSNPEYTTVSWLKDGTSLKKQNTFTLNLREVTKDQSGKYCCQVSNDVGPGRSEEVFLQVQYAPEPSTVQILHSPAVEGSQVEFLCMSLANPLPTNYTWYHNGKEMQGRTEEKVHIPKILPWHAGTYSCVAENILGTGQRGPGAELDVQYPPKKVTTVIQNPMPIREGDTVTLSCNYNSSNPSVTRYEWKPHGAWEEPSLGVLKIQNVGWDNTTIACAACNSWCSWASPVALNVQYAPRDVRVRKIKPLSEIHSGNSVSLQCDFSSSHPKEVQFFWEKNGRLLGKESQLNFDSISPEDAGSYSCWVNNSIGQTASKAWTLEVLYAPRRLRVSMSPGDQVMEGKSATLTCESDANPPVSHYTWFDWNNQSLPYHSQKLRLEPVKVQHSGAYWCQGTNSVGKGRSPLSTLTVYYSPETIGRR
# measurementNotes: SPR (Biacore), antibody captured on Protein A chip, CD22-ECD-His in solution
For each record, write down the corresponding pKd.
Give bare numbers, as −log10 of the molar value.

Solved entries (count: 2):
binder | pKd
F2.180.16 (antibody, human IgG1, lambda, V domains shown, Chimeric IgG1 lambda) VH: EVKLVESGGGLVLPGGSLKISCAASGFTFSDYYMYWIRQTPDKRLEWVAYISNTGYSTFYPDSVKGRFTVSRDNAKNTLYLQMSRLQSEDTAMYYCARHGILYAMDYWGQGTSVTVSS VL: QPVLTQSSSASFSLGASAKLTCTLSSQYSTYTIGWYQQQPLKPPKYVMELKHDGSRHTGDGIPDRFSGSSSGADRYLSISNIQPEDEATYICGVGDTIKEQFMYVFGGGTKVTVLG | 7.74
F1.172.13 (antibody, human IgG1, kappa, V domains shown, Chimeric IgG1 kappa) VH: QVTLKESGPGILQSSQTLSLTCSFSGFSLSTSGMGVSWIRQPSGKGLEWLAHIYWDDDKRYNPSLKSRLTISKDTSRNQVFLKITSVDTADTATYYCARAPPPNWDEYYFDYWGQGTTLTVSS VL: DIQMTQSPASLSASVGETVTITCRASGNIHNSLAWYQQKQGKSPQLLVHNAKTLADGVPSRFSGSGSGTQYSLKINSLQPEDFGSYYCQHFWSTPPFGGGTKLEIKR | 7.75

If you can, please state the reported pKd value of F1.257.3 (antibody, human IgG1, kappa, V domains shown, Chimeric IgG1 kappa) VH: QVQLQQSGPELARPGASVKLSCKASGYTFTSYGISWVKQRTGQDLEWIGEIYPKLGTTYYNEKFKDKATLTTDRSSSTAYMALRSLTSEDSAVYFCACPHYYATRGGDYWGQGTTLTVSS VL: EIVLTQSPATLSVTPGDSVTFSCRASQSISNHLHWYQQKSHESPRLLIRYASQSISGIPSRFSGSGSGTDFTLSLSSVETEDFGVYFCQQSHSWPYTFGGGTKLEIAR . 9.38
